# System: MCC-13
# assay.procedure: qHTS assay to identify novel small-molecules to repurpose for Merkel cell carcinoma treatment (AID 1296009); also: nearly all actives have a fitted effect of over 60% in size
# condition.details: MCC and control cell lines, CellTiter-Glo viability, 72 h; series mostly up to 46 µM
Records with an inconclusive call do not appear. Activity calls are given as the source filed them. Calls follow the shape of the dose curve; as a rule, active = well fitted inhibition curve with a large enough effect; inconclusive = small, poorly fitted or top-dose-only effect; inactive = flat fitted curve, though single readings scatter.
experimental.readout: outcome

structure.string | experimental.readout | value
c1cc(N[C@@H]2CCNC2)nc(-c2cnc3ccc(-c4cn[nH]c4)cn23)c1 | outcome | inactive
NC(=O)N1CCC(CC(=O)N2CCC([C@H]3c4ncc(Br)cc4CCc4cc(Cl)cc(Br)c43)CC2)CC1 | outcome | inactive
COc1ccc(S(=O)(=O)Nc2cc(-c3c(O)ccc4ccccc34)c(O)c3ccccc23)cc1 | outcome | inactive
